# reported IC50; entries follow
Test system: collagen-induced platelet aggregation
Assay: Platelet aggregation-inhibiting action (collagen-induced aggregation of human platelet rich plasma)
Assay type: cell-based
Conditions: human PRP, read-out: Inhibition of collagen-induced platelet aggregation, IC50
Number only, in nM; omit the unit.

Worked examples follow.
COc1ccc(-n2nc(C(=O)N3CCOCC3)cc2-c2ccccn2)cn1 140
COc1ccc(-n2nc(C(=O)N3CCN(C4CC4)CC3)cc2-c2ccccn2)cn1 35
COc1ccc(-n2nc(C(=O)N3CCN(C)CC3)cc2-c2ccc[nH]2)cn1 29
COc1ccc(-n2nc(C(=O)N3CCCOCC3)cc2-c2ccccn2)cn1 170
COc1ccc(-n2nc(C(=O)N3CCN(C)CC3)cc2-c2ccccn2)nn1 400

// assay collagen-induced platelet aggregation, entry "COc1ccc(-n2nc(C(=O)N3CCN(C)CC3)cc2-c2cnccn2)cn1" , IC50 value = 90

The reported IC50 value, collagen-induced platelet aggregation, for "COc1ccc(-n2nc(C(=O)N3CCN(C)C(=O)C3)cc2-c2ccccn2)cn1" reads 170

IC50 on collagen-induced platelet aggregation for "COc1ccc(-n2nc(C(=O)N3CCCCN3C(C)=O)cc2-c2ccccn2)cn1" is 90

Let me check: "COc1ccc(-n2nc(C(=O)N3CCN(C)CC3)cc2-c2ccccc2)cn1" , system collagen-induced platelet aggregation, measured IC50 is 120

* * *

Listing: Inhibitory effect against COX-1 at 50 μM (% inhibition) of selected molecules
Molecular target: cyclooxygenase-1 (COX-1) (Ovis aries)
Construct: purchased Cayman Chemical Company 560101 and 560121
Sequence (P05979 25-600): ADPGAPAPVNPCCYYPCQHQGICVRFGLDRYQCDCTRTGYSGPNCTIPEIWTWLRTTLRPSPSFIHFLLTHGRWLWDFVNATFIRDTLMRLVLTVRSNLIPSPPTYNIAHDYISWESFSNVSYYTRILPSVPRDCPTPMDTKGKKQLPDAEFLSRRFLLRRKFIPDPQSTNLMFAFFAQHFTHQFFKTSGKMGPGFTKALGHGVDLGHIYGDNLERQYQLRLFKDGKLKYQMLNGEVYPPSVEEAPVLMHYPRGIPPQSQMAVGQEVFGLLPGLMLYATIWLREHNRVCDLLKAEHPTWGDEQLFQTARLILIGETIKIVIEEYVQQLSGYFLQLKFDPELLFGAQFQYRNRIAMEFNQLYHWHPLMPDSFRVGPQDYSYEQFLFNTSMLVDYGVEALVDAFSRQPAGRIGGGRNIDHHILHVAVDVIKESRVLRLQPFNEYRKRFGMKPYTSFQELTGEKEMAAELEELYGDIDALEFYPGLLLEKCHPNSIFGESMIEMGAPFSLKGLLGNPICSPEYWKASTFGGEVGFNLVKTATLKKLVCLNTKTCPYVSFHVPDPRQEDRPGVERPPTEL
Assay: Inhibitory effect on COX-1 (COX Inhibitor Screening Assay Kit, PGF2α ELISA)
Type: biochemical
Conditions: 50 μM compound
// units = % inhibition; emit number, no label

Below: 6 molecules and their reported Inhibitory effect against COX-1 at 50 μM (% inhibition).
COc1ccc(-n2nc(C(=O)N3CCC(F)(F)CC3)cc2-c2ccccn2)nn1 7.6
COc1ccc(-n2nc(C(=O)N3CCCCC3)cc2-c2ccccn2)nn1 1
COc1ccc(-n2nc(C(=O)N3CCN(C)C(=O)C3)cc2-c2ccccn2)cn1 −1.2
COc1ccc(-n2nc(C(=O)N3CCN(C)CC3)cc2-c2ccccn2)nn1 2.7
COc1cnc(-n2nc(C(=O)N3CCN(C)CC3)cc2-c2ccccn2)cn1 9.7
COc1ccnc(-c2cc(C(=O)N3CCN(C)CC3)nn2-c2ccc(OC)nc2)c1 0.5

Looking up "COc1ccc(-n2nc(C(=O)N3CCN(C)CC3)cc2-c2ccccc2)cn1" , I see its Inhibitory effect against COX-1 at 50 μM (% inhibition) listed as −2.4

* * *

System: collagen-induced platelet aggregation
Test: Platelet aggregation-inhibiting action (collagen-induced aggregation of human platelet rich plasma)
Format: cell-based
Conditions: human PRP, read-out: Inhibition of collagen-induced platelet aggregation, IC50
hey, just use T if measured IC50 is less than 100 nM, otherwise F

Please review the following examples before continuing.
COc1ccc(-n2nc(C(=O)N3CCCCC3)cc2-c2ccccn2)nn1 F
COc1ccc(-n2nc(C(=O)N3CCOCC3)cc2-c2ccc[nH]2)cn1 T
COc1cnc(-n2nc(C(=O)N3CCN(C)CC3)cc2-c2ccccn2)cn1 F
COc1ccc(-n2nc(C(=O)N3CCC(F)(F)CC3)cc2-c2ccccn2)nn1 T
COc1ccnc(-c2cc(C(=O)N3CCN(C)CC3)nn2-c2ccc(OC)nc2)c1 F
COc1ccc(-n2nc(C(=O)N3CC(N(C)C)C3)cc2-c2ccccc2)cn1 F

For the next question, use this compound.
Exercise: Problem: For the compound "COc1ccc(-n2nc(C(=O)N3CCCC(F)(F)C3)cc2-c2ccccn2)nn1" , is IC50 under 100 nM?
Solution: F
